Target: SIK2 (Homo sapiens, UniProt Q9H0K1)
Construct: purchased ThermoFisher Scientific PV4792
Sequence (Q9H0K1 whole entry): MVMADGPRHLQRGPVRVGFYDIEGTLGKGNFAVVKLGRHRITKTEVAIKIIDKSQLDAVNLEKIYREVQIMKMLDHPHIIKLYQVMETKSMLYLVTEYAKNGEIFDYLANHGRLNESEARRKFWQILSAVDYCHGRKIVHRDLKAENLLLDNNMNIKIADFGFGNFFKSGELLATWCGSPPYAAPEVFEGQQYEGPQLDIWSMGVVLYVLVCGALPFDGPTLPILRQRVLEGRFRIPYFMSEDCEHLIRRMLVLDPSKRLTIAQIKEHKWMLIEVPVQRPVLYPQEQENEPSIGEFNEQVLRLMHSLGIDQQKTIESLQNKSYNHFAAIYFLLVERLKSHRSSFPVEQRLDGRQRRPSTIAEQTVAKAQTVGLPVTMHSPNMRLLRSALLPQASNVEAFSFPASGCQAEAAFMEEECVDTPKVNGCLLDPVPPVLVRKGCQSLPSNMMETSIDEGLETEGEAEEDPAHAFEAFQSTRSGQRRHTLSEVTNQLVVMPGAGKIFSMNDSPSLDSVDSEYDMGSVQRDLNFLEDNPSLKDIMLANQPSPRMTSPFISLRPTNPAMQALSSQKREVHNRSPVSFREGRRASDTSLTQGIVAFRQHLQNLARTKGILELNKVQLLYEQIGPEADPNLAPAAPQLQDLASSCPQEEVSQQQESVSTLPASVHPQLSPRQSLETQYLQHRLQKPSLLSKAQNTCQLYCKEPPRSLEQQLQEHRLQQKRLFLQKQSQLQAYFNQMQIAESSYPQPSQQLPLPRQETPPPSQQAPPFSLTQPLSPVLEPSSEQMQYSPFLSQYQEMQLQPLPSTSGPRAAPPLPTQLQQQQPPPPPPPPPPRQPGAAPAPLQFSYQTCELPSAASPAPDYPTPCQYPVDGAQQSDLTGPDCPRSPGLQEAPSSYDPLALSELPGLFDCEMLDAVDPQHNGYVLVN
Assay: biochemical
Settings: ADP-Glo SIK kinase assay
pIC50: −log10 of the molar value.
Attribute Measured: pIC50

Please give the measured pIC50 for this compound: CCNC(=O)c1c(OC)cc(-n2cnc3cc(-c4cnn(C)c4)cnc32)cc1OC(F)F
8.00 to 11.00

Ok, now COc1cc(-c2cnc3cc(-c4cnn(C(C)(C)C(=O)O)c4)ccn23)cc(OC)c1C(=O)NCC(F)(F)F
7.00 to 8.00

Ok, now COc1cc(-c2cnc3cc(-c4cnn(C)c4)ccn23)cc(OC)c1C(=O)N1CC(C(F)(F)F)C1
8.00 to 11.00

Ok, now COc1cc(-c2cnc3cc(-c4ccc(N(C)C)nn4)ccn23)cc(OC(F)F)c1C(=O)NC1CC1
8.00 to 11.00

Ok, now COc1cc(-c2cnc3cc(-c4cnn(C)c4)ccn23)cc(F)c1C(=O)NC1CC1
8.00 to 11.00

Ok, now CCN1Cc2cc(-c3cnc4cc(-c5cnn(C)c5)ccn34)cc(NCCO)c2C1=O
7.00 to 8.00

---

Target: SIK1 (Homo sapiens)
Construct: purchased Carna Biosciences 02-131
Sequence (P57059 whole entry): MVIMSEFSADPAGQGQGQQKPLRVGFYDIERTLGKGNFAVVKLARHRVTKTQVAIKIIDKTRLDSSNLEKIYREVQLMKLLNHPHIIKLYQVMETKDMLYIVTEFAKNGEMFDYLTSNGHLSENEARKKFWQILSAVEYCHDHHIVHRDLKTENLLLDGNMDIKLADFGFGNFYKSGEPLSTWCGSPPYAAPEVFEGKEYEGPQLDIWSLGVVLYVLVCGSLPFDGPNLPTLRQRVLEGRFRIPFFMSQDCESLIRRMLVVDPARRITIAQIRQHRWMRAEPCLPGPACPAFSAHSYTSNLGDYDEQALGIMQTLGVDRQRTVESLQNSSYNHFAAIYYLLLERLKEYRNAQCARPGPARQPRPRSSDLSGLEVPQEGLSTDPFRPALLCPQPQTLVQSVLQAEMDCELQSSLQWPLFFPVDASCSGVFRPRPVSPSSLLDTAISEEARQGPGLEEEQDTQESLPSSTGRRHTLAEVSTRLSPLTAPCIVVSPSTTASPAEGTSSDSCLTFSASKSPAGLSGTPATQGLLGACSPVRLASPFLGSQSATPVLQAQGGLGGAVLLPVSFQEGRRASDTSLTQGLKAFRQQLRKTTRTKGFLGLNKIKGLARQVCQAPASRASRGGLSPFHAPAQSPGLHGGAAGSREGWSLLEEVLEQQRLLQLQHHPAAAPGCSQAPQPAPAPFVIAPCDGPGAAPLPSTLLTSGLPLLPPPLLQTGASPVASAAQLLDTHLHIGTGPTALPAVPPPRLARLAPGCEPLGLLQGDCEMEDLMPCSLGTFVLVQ
Experiment: biochemical
Conditions: 33P radioactive SIK kinase assay, AMARA peptide, 10 μM ATP; read-out: SIK1 IC50
Attribute Measured: IC50

Consider the following illustrative entries.
- Compound: "COc1cc(-n2cnc3cc(-c4cnn(C)c4)ccc32)cc(OC)c1C(=O)NC1CC(F)(F)C1"
  IC50: "10 to 100 nM"
- Compound: "COc1cc(-n2cnc3cc(-c4cnn(C)c4)ccc32)cc(OC)c1C(=O)NC1CCCC1(F)F (stereo not shown)"
  IC50: "10 to 100 nM"
- Compound: "COc1cc(-n2cnc3cc(-c4cnn(C)c4)ccc32)cc(OC)c1C(=O)NC1CS(=O)(=O)C1"
  IC50: "100 to 500 nM"

// moving on: another record for IC50
Please give the measured IC50 for this compound: COc1cc(-c2ccc3c(c2)ncn3-c2cc(OC)c(C(=O)NCC(F)(F)F)c(OC)c2)ccn1
100 to 500 nM

---

Target: SIK2 (Homo sapiens, UniProt Q9H0K1)
Construct: purchased ThermoFisher Scientific PV4792
Assay: biochemical
Conditions: 33P radioactive SIK kinase assay, AMARA peptide, 10 μM ATP
Attribute Measured: IC50

Consider the following illustrative entries.
- Compound: "COc1cc(-n2cnc3cc(-c4cnn(C)c4)ccc32)cc(OC)c1C(=O)NC1CCCC1(F)F (centres unmarked) [compound 90]"
  Attribute Measured: "IC50"
  Observed: "10 to 100 nM"
- Compound: "COc1cc(-c2cnc3cc(-c4cnn(C)c4)ccn23)cc(OC)c1C(=O)N[C@H](C)C(F)(F)F [Cpd 174]"
  Attribute Measured: "IC50"
  Observed: "0.01 to 10 nM"
- Compound: "COc1cc(-n2cnc3cc(-c4cn[nH]c4)ccc32)cc(OC)c1C(=O)NCC(F)(F)F [compound 47]"
  Attribute Measured: "IC50"
  Observed: "10 to 100 nM"
- Compound: "COc1cc(-n2cnc3cc(-c4ccnnc4)ccc32)cc(OC)c1C(=O)NCC(F)(F)F [compound 93]"
  Attribute Measured: "IC50"
  Observed: "10 to 100 nM"
- Compound: "COc1cc(-c2cnc3cc(-c4cnn(C)c4)ccn23)cc2c1C(=O)N(CC(F)(F)F)C2 [compound 261]"
  Attribute Measured: "IC50"
  Observed: "0.01 to 10 nM"
- Compound: "COc1cc(-n2cnc3cc(-c4cnccn4)ccc32)cc(OC)c1C(=O)NCC(F)(F)F [compound 128]"
  Attribute Measured: "IC50"
  Observed: "> 500 nM"
- Compound: "COc1cc(-c2cnc3cc(-c4cnn(C(C)C(=O)OC(C)(C)C)c4)ccn23)cc(OC)c1C(=O)NCC(F)(F)F (centres unmarked) [compound 243]"
  Attribute Measured: "IC50"
  Observed: "0.01 to 10 nM"
- Compound: "COc1cc(-c2cnc3cc(-c4cnn(C)c4)ccn23)cc2c1C(=O)N(C1CC1)CC2 [compound 262]"
  Attribute Measured: "IC50"
  Observed: "0.01 to 10 nM"
- Compound: "COc1cc(-c2cnc3cc(-c4cnn(C)c4)ccn23)cc(OC)c1C(=O)NCC(F)F [compound 133]"
  Attribute Measured: "IC50"
  Observed: "0.01 to 10 nM"
- Compound: "COc1cc(-n2cnc3cc(-c4cnn(C)c4)ccc32)cc(OC)c1C(=O)N1CC(C2CCOCC2)C1 [compound 191]"
  Attribute Measured: "IC50"
  Observed: "100 to 500 nM"

Please give the measured IC50 for this compound: COc1cc(-n2cnc3cc(-c4cnn(C)c4)ccc32)cc(OC)c1C(=O)NCCC#N [compound 59]
10 to 100 nM

Ok, now COc1cc(-n2cnc3cc(-c4nnc(C)[nH]4)ccc32)cc(OC)c1C(=O)NCC(F)(F)F [Cpd 127]
100 to 500 nM

Ok, now COc1cc(-n2cnc3cc(-c4cnn(C)c4)ccc32)cc(OC)c1C(=O)N1CC(OCc2ccccc2)C1 [compound 186]
100 to 500 nM

Ok, now CCNC(=O)c1c(OC)cc(-c2cnn3cc(-c4cnn(CC)c4)cnc23)cc1OC [compound 9]
10 to 100 nM

Ok, now CCNC(=O)c1c(O)cc(-n2cnc3cc(-c4cnn(CC)c4)ccc32)cc1OC [compound 23]
10 to 100 nM

Ok, now COc1cc(-n2cnc3cc(-c4cccnc4)ccc32)cc(OC)c1C(=O)NCC(F)(F)F [compound 39]
10 to 100 nM
